Please use y whenever logP is not below 4, and n whenever it is.

Worked set:
structure.smiles.string	class.name
C=CCN(CCC#N)c1cc(NC(C)=O)c(N=Nc2c(Br)cc([N+](=O)[O-])cc2[N+](=O)[O-])cc1OC	y
Cc1cc(N(CCO)CCO)ccc1N=Nc1ccc([N+](=O)[O-])cc1Cl	y
CCn1c(O)c(N=Nc2ccc(Cl)cc2[N+](=O)[O-])c(C)c(C#N)c1=O	n
O=C1c2ccccc2C(=O)C1c1nc2ccccc2cc1O	y
COc1cc(N)c2c(c1N)C(=O)c1ccccc1C2=O	n

Form field: logP at least 4? Entry: Nc1ccc(N)c2c1C(=O)c1ccccc1C2=O
n

Another: CCN(CCO)c1ccc(N=Nc2ccc([N+](=O)[O-])cc2)cc1
y

Another: COc1cc(N=Nc2c(Br)cc([N+](=O)[O-])cc2[N+](=O)[O-])c(NC(C)=O)cc1N(CCOC(C)=O)CCOC(C)=O
y

Another: O=[N+]([O-])c1cc(S(=O)(=O)Nc2ccccc2)ccc1Nc1ccccc1
y

###

Measured logP values are reported for all entries that follow.
Write the number on its own, no unit after it.

structure.smiles.string	reading
CNc1cccc2c1C(=O)c1ccccc1C2=O	4.1
O=C1c2ccccc2C(=O)C1c1ccc2ccccc2n1	4.1

Continue with the compound presented below.
If you can, please state the reported logP value of N#CCCN(CCO)c1ccc(N=Nc2ccc([N+](=O)[O-])cc2Cl)cc1 .
4
